The measurements presented in this section are drawn from paper PMC4336329.

Molecular target: human ether-à-go-go-related gene (hERG) potassium channel (human, UniProt Q12809)
Sequence (Q12809 whole entry, looked up): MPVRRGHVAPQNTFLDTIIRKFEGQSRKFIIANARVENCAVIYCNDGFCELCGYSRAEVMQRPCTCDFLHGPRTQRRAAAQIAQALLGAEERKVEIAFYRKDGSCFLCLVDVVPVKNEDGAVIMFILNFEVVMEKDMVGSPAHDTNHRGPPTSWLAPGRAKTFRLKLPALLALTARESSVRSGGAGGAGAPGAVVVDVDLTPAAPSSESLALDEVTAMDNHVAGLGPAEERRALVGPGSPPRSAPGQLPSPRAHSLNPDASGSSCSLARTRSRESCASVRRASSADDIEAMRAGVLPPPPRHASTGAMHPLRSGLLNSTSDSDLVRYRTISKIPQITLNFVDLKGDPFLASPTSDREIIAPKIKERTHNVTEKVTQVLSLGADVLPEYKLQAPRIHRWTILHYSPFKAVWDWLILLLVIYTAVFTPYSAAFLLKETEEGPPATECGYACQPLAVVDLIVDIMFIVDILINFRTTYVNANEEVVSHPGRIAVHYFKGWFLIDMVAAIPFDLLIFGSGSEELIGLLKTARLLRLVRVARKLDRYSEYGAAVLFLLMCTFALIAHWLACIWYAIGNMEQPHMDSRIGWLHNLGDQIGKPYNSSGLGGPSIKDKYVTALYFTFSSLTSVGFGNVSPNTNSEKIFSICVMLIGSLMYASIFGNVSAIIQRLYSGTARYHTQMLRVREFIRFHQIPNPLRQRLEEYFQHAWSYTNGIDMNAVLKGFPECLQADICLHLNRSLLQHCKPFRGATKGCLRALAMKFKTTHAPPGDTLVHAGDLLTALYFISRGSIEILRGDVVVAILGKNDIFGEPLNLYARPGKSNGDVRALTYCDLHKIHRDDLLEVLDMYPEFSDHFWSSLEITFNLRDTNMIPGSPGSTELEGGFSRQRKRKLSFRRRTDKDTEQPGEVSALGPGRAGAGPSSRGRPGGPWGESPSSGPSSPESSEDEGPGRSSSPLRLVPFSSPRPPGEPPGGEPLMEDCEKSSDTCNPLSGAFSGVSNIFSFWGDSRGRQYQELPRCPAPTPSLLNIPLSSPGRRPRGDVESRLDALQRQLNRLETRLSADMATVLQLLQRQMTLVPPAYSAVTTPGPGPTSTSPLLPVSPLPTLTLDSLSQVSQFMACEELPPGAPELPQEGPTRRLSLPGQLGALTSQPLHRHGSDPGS
Assay: primary screen, population patch clamp on CHO cells stably expressing hERG; higher = less effect of the substance
Out of some 310,000 compounds screened, about 2,200 (0.71%) showed an effect of 50% or more. The effect is printed as a negative number. The sample holds strong results, similar compounds and a random draw of the others, so the mix is not that of the screen.
Listed here: items and their measured hERG current change (%, negative = inhibition) at 1uM.
Give the quantity in %, number only.

Take a look at these entries with their results.
[
  {
    "compound": "CC(C)(C)NC(=O)CSc1nccn1Cc1ccccc1",
    "obs_value": 5.85
  },
  {
    "compound": "COc1ccc(CC2(CO)CCN(Cc3cccc4nccnc34)CC2)cc1",
    "obs_value": -53
  },
  {
    "compound": "O=C(Cn1ncc2c1-c1ccccc1OC2)N1CCN(Cc2ccccc2)CC1",
    "obs_value": -58
  },
  {
    "compound": "COc1ccc(CC2(CO)CCN(Cc3ccc(OC(F)(F)F)cc3)CC2)cc1",
    "obs_value": -57.5
  },
  {
    "compound": "CC1CN(C(=O)COC(=O)COc2ccc(C#N)cc2)CC(C)O1 (stereo not drawn)",
    "obs_value": 11.6
  }
]

Data request: Give the measured hERG current change (%, negative = inhibition) at 1uM of COc1ccc(F)c(CN2CCC(CO)(Cc3cccc(C(F)(F)F)c3)CC2)c1 .
Data returned: -1.43

---

Listed here: items and their measured hERG current change (%, negative = inhibition) at 1uM.
Target: human ether-à-go-go-related gene (hERG) potassium channel (human, UniProt Q12809)
Experiment: primary screen, population patch clamp on CHO cells stably expressing hERG; higher = less effect of the substance
The campaign covered roughly 310,000 compounds. About 2,200 (0.71%) showed an effect of 50% or more. Effects have a minus sign here. Only a selection was taken, and strong results are over-represented in it overall.
Give the quantity in %, number only.

Take a look at these entries with their results.
[
  {
    "compound": "O=C1C=C(NCc2ccc(Cl)cc2)CC(c2ccco2)C1 (stereo not drawn)",
    "assay_system": "human ether-à-go-go-related gene (hERG) potassium channel (human, UniProt Q12809)",
    "unit_abbreviation": "%",
    "obs_value": -91.3
  },
  {
    "compound": "CC1(C)CC(=O)C2=C(C1)N(c1ccc(F)cc1)C(N)=C(C#N)C2c1cccs1 (stereo not drawn)",
    "assay_system": "human ether-à-go-go-related gene (hERG) potassium channel (human, UniProt Q12809)",
    "unit_abbreviation": "%",
    "obs_value": 4.89
  },
  {
    "compound": "COc1ccc(NC(=O)NC2CC3CCCC(C2)N3Cc2ccccc2)cc1 (stereo not drawn)",
    "assay_system": "human ether-à-go-go-related gene (hERG) potassium channel (human, UniProt Q12809)",
    "unit_abbreviation": "%",
    "obs_value": -17.4
  }
]

Data request: Give the measured hERG current change (%, negative = inhibition) at 1uM of O=C1C=C(NCc2ccncc2)CC(c2ccccc2)C1 (stereo not drawn) .
Data returned: -22.8

Data request: Give the measured hERG current change (%, negative = inhibition) at 1uM of Cc1ccccc1N(CC(=O)NCc1ccc2c(c1)OCO2)C(=O)CCC(=O)Nc1ccccn1 .
Data returned: 6.43

Data request: Give the measured hERG current change (%, negative = inhibition) at 1uM of O=C1CCN(CCc2ccccc2)CCN1[C@H](CSc1ccc(Br)cc1)c1ccccc1 .
Data returned: -18.8

Data request: Give the measured hERG current change (%, negative = inhibition) at 1uM of CCn1c(SCC(=O)Nc2cccc(C)n2)nnc1-c1ccco1 .
Data returned: 0.773
